Hi there, I'd appreciate the recorded IC50 for every entry that follows.
Test system: MCF7-DOX
assay_details: Antiproliferative activity against human MCF7-DOX cells assessed as reduction in cell viability by MTT assay
Format: functional, cell-based
One number for each entry, in µM.

{"smiles_repr": "CO/N=C1\\C(=O)N(CCOCCOCCOCCn2cc(COc3ccc4c(C)cc(=O)oc4c3)nn2)c2ccc(F)cc21", "endpoint_label": "IC50", "experimental_value": 20.1}

Q) Return IC50 for the following compound: "Cc1ccc2c(c1)/C(=N\O)C(=O)N2CCOCCn1cc(COc2ccc3c(C)cc(=O)oc3c2)nn1"
A) 15.5

====

System: HCC1937
assay_details: Anticancer activity against human HCC1937 cells assessed as reduction in cell growth incubated for 48 hrs by MTT assay
Type: functional, cell-based
condition_details: HCC1937, 48 h
endpoint_label: IC50 (µM)
Give bare numbers, in µM.

Q) Give IC50 for "O=c1oc2ccccc2c(O)c1C(c1ccc(O)cc1O)c1c(O)c2ccccc2oc1=O" tested on HCC1937.
A) 20.2

====

Test system: HCT-116
assay_details: Cytotoxicity against human HCT-116 cells assessed as reduction in cell growth measured after 48 hrs by MTT assay
Assay type: functional, cell-based
condition_details: HCT-116, 48 h
endpoint_label: pIC50
Give bare numbers, as −log10 of the molar value.

Q) Return pIC50 for the following molecule: "COc1ccc(-c2cc(-c3cc4ccccc4oc3=O)nc(N)c2C#N)cc1"
A) 5.00

====

Hi there, I'd appreciate the recorded pIC50 for every entry that follows.
System: MDA-MB-231
assay_details: Antiproliferative activity against human MDA-MB-231 cells assessed as reduction in cell viability measured after 72 hrs under hypoxia condition by MTT assay
Format: functional, cell-based
condition_details: MDA-MB-231, 72 h
Give bare numbers, as −log10 of the molar value.

{"smiles_repr": "COc1cccc2c1C(=O)c1c(O)c3c(c(O)c1C2=O)C[C@@](O)(C(=O)CO)C[C@@H]3O[C@H]1C[C@H](N)[C@H](O)[C@H](C)O1", "experimental_target": "MDA-MB-231", "pIC50": 6.22}

Q) Return pIC50 for the following compound: "COC(=O)c1cccc(NC(=O)c2ccc(-n3cc(COc4cc(=O)oc5ccccc45)nn3)cc2)c1"
A) 6.60

====

Tested on: C6
assay_details: Antiproliferative activity against rat C6 cells assessed as inhibition of cell growth
Format: functional, cell-based
endpoint_label: IC50 (µM)
Answers are plain numbers, in µM.

Q) Return IC50 for the following compound: "Cc1cn(Cc2cc(=O)oc3ccc(Cl)cc23)c(=O)n(Cc2cc(=O)oc3ccc(Cl)cc23)c1=O"
A) 4.85

====

Hi there, I'd appreciate the recorded IC50 for every entry that follows.
Test system: DU-145
assay_details: Antiproliferative activity against human DU-145 cells assessed as reduction in cell viability by MTT assay
Type: functional, cell-based
One number for each entry, in µM.

{"smiles_repr": "CO/N=C1\\C(=O)N(CCOCCOCCOCCn2cc(COc3ccc4c(C)cc(=O)oc4c3)nn2)c2ccc(F)cc21", "IC50, µM": 33.4}

Consider the record given below.
Q) Return IC50 for the following compound: "Cc1ccc2c(c1)/C(=N\O)C(=O)N2CCOCCn1cc(COc2ccc3c(C)cc(=O)oc3c2)nn1"
A) 31.5

====

Test system: SK-OV-3
assay_details: Antiproliferative activity against human SK-OV-3 cells assessed as reduction in cell viability by MTT assay
Type: functional, cell-based
endpoint_label: IC50 (µM)
Answers are plain numbers, in µM.

{"smiles_repr": "CO/N=C1\\C(=O)N(CCOCCOCCOCCn2cc(COc3ccc4c(C)cc(=O)oc4c3)nn2)c2ccc(F)cc21", "experimental_target": "SK-OV-3", "IC50 / µM": 35.3}

Consider the record given below.
Q) Return IC50 for the following compound: "Cc1ccc2c(c1)/C(=N\O)C(=O)N2CCOCCn1cc(COc2ccc3c(C)cc(=O)oc3c2)nn1"
A) 18

====

System: A549
assay_details: Cytotoxicity against human A549 cells assessed as reduction in cell growth measured after 48 hrs by MTT assay
Assay type: functional, cell-based
condition_details: A549, 48 h
endpoint_label: IC50 (nM)
Numbers only, in nM.

Q) Return IC50 for the following compound: "COc1ccc2oc(=O)c(/C=C3\SC(=O)N(C(=O)c4ccc(Cl)cc4)C3=O)cc2c1"
A) 950

====

assay_details: Cytotoxicity against green monkey COS-7 cells
Type: toxicity, cell-based
condition_details: green monkey (Chlorocebus aethiops)
endpoint_label: IC50

{"smiles_repr": "O=c1oc2ccccc2cc1-c1csc(N/N=C/c2c3ccccc3c(Cl)c3ccccc23)n1", "endpoint_label": "IC50", "experimental_value": "1660 nM"}

Consider the record given below.
Q) Return IC50 for the following compound: "O=c1oc2ccccc2cc1-c1csc(N/N=C/c2cc([N+](=O)[O-])ccc2Cl)n1"
A) 1960 nM

====

System: MCF7
assay_details: Cytotoxicity against human MCF7 cells assessed as reduction in cell growth by MTT assay
Type: functional, cell-based
endpoint_label: IC50 (µM)
Numbers only, in µM.

Q) Return IC50 for the following compound: "Cc1c(Cc2ccc(NC(=O)Nc3ccc(Br)cc3)nc2)c(=O)oc2cc(O)c(C(C)(C)C)cc12"
A) 2.56

====

System: SK-OV-3
assay_details: Antiproliferative activity against human SK-OV-3 cells assessed as reduction in cell growth by SRB assay
Type: functional, cell-based
endpoint_label: IC50 (µM)
Answers are plain numbers, in µM.

Q) Give IC50 for "Cc1cc(=O)oc2cc(OCCOCCN3C(=O)/C(=N/O)c4ccccc43)ccc12" tested on SK-OV-3.
A) 18.6
